- target-or-system: Human NMDA (NR1/NR2B) Receptor (Homo sapiens)
- Construct: host or cells: HEK293
- Sequence (Q13224 27-1484, other chains not shown): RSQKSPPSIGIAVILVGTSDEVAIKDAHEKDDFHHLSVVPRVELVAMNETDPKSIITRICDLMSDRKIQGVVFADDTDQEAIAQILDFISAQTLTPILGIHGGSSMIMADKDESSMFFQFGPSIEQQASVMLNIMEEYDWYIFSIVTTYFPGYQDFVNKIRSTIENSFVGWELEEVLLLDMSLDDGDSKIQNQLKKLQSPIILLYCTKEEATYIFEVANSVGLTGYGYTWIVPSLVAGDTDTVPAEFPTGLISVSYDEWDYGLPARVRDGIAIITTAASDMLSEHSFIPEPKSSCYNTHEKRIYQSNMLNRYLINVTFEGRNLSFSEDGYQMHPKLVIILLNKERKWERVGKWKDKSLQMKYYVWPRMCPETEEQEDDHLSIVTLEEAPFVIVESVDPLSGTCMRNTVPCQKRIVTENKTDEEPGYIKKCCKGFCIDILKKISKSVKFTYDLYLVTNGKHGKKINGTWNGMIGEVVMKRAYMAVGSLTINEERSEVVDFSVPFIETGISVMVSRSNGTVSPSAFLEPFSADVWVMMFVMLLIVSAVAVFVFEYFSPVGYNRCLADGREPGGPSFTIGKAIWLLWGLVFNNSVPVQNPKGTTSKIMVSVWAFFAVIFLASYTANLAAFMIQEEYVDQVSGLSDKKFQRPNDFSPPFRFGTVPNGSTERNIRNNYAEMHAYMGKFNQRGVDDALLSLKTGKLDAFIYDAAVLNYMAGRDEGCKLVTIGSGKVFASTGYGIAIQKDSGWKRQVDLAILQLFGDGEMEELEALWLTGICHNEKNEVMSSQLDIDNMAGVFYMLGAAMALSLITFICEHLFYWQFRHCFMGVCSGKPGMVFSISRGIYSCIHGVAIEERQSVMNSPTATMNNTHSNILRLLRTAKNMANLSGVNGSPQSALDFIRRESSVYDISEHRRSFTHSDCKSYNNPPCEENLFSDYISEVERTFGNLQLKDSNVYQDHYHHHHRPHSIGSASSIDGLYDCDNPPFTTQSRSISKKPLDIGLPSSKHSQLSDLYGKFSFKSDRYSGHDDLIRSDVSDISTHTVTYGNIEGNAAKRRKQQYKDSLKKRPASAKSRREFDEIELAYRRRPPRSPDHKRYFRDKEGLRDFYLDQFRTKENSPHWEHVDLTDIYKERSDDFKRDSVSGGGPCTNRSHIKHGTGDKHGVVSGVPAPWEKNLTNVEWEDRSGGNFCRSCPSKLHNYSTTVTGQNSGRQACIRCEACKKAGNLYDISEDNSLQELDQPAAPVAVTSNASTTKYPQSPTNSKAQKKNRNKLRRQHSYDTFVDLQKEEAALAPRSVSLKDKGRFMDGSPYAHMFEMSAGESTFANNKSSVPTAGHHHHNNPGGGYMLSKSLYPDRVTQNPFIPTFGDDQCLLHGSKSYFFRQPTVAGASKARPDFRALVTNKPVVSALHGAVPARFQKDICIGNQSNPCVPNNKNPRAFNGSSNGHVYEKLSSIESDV
- method-description: NR2B Ca2+ influx assay
- Format: cell-based
- run-conditions: 10 μM compound; HEK293 cells expressing GRIN1 and GRIN2B; glutamic acid/glycine-induced Ca2+ influx, Fluo-4 fluorescence; read-out: inhibitory rate (10 μM compound concentration)
Hi there, I'd appreciate the recorded inhibition at 10 µM for every entry that follows.
I only need the number, in %, no unit after it.

Query :: Consider the molecule shown here: COc1ccncc1CNC(=O)c1cc(F)c(OC)c(F)c1 What is its recorded inhibition at 10 µM?
Result :: 92

Query :: For CC(F)(F)c1ncc(C(=O)NCc2cncnc2OC2CC2)cc1F , what is its reported inhibition at 10 µM?
Result :: 91

Query :: # get_value(readout='inhibition at 10 µM', item= CCOc1ncncc1CNC(=O)c1cc(F)c(OC)c(F)c1 )
Result :: 90

Query :: Could you share which inhibition at 10 µM value was measured for COc1ncncc1CNC(=O)c1ccc(OC(F)F)cc1 ?
Result :: 88

Query :: Using the record for COc1c(F)cc(C(=O)NCc2cncnc2OC2CC2)cc1F , report its inhibition at 10 µM.
Result :: 90

Query :: What does the record list as inhibition at 10 µM for O=C(NCc1cnccc1C(F)F)c1cnc(OC(F)F)c(F)c1 ?
Result :: 91

Query :: Would you kindly share the measured inhibition at 10 µM for CCOc1ccncc1CNC(=O)c1cnc(OC(F)F)c(F)c1 ?
Result :: 96

Query :: inhibition at 10 µM for COc1ncncc1CNC(=O)c1csc(C2CC2)c1 ?
Result :: 89

Query :: Fill blank: measured inhibition at 10 µM of the molecule COc1ncncc1CNC(=O)c1ccc(OC(F)(F)F)c(F)c1 is ____.
Result :: 95

Query :: Entry Cc1ccncc1CNC(=O)c1csc(C2CC2)c1 : reported inhibition at 10 µM = ?
Result :: 93

Query :: # inhibition at 10 µM lookup, item Cc1ccncc1CNC(=O)c1cnc(C(C)(F)F)c(Cl)c1
Result :: 92

Query :: Could you share which inhibition at 10 µM value was measured for CCc1ncncc1CNC(=O)c1cnc(OC(F)F)c(F)c1 ?
Result :: 87

Query :: Name the recorded inhibition at 10 µM for O=C(NCc1cnccc1OC(F)F)c1cnc(OC(F)F)c(F)c1 .
Result :: 89

Query :: Look up inhibition at 10 µM for this molecule: Cc1ccncc1CNC(=O)c1cnc(C(C)(F)F)c(F)c1
Result :: 90

Query :: Please look up its inhibition at 10 µM: Cc1ccncc1CNC(=O)c1ccc(OC(F)F)cc1
Result :: 90

Query :: Requested read-out: inhibition at 10 µM. Entry: O=C(NCc1cncc(F)c1OC1CC1)c1cnc(OC(F)F)c(F)c1
Result :: 97

Query :: Please look up its inhibition at 10 µM: Cc1ccncc1CNC(=O)c1cc(F)c(OC(F)F)c(F)c1
Result :: 91

Query :: I would be grateful if you could share the reported inhibition at 10 µM for Cc1ccncc1CNC(=O)c1ccc(OC(F)(F)F)c(F)c1 .
Result :: 94

Query :: Request the reported inhibition at 10 µM associated with COc1ncncc1CNC(=O)c1cnc(OC(F)F)c(Cl)c1
Result :: 93

Query :: I have this molecule here, Cc1c(F)cncc1CNC(=O)c1cnc(C2CC2(F)F)c(F)c1 (stereo not shown) , and I need its recorded inhibition at 10 µM.
Result :: 92

Query :: Bench note: what inhibition at 10 µM did Cc1ccncc1CNC(=O)c1cnc(OC(F)F)c(Cl)c1 show?
Result :: 95

Query :: Request the reported inhibition at 10 µM associated with O=C(NCc1cncnc1OC1CC1)c1cnc(OC(F)F)c(F)c1
Result :: 91

Query :: # inhibition at 10 µM lookup, item Cc1ccncc1CNC(=O)c1cnc(C2CC2)c(F)c1
Result :: 95

Query :: I'd like to know its inhibition at 10 µM. The molecule in question is Cc1ccncc1CNC(=O)c1ccc(C(F)F)c(F)c1
Result :: 85

Query :: Would you kindly share the measured inhibition at 10 µM for COc1c(F)cc(C(=O)NCc2cnccc2C)cc1F ?
Result :: 91
